System: Mycobacterium avium
ASSAY OVERVIEW: Antimycobacterial activity against Mycobacterium avium CNCTC My 330/88 after 14 days by micromethod
Assay type: functional
EXPERIMENTAL SETUP: CNCTC My 330/88, 336 h
READOUT TYPE: MIC (µM)

INSERT INTO measurements (compound, readout_type, unit_string, reading) VALUES
  ('CCCCCCCCCCCCCCCCSCc1cc([N+](=O)[O-])cc([N+](=O)[O-])c1', 'MIC', 'µM', 1000),
  ('O=[N+]([O-])c1cc(CSc2nnnn2-c2ccc(Cl)c(Cl)c2)cc([N+](=O)[O-])c1', 'MIC', 'µM', 8),
  ('CCCCCCn1nnnc1SCc1cc([N+](=O)[O-])cc([N+](=O)[O-])c1', 'MIC', 'µM', 32),
  ('O=[N+]([O-])c1cc(COc2nnnn2-c2ccc(Br)cc2)cc([N+](=O)[O-])c1', 'MIC', 'µM', 125),
  ('COc1ccc(-n2nnnc2SCc2ccc([N+](=O)[O-])cc2[N+](=O)[O-])cc1', 'MIC', 'µM', 62),
  ('O=[N+]([O-])c1cc(C[S+]([O-])c2nnnn2-c2ccccc2)cc([N+](=O)[O-])c1 (stereo unspecified)', 'MIC', 'µM', 125),
  ('COc1ccc(-n2nnnc2S(=O)(=O)Cc2cc([N+](=O)[O-])cc([N+](=O)[O-])c2)cc1', 'MIC', 'µM', 125),
  ('Cc1ccc(-n2nnnc2SCc2cc([N+](=O)[O-])cc([N+](=O)[O-])c2)cc1C', 'MIC', 'µM', 250),
  ('O=[N+]([O-])c1cc(CS(=O)(=O)c2nnnn2-c2ccccc2)cc([N+](=O)[O-])c1', 'MIC', 'µM', 62),
  ('O=[N+]([O-])c1ccc(CSc2nnnn2-c2ccccc2)c([N+](=O)[O-])c1', 'MIC', 'µM', 32),
  ('O=[N+]([O-])c1ccc(-n2nnnc2SCc2ccccc2)cc1', 'MIC', 'µM', 62),
  ('O=[N+]([O-])c1cc(CSc2nnnn2Cc2ccccc2)cc([N+](=O)[O-])c1', 'MIC', 'µM', 250),
  ('O=[N+]([O-])c1cc(CSc2nnnn2-c2ccc(F)cc2)cc([N+](=O)[O-])c1', 'MIC', 'µM', 250),
  ('CCCCCCn1nnnc1[Se]Cc1cc([N+](=O)[O-])cc([N+](=O)[O-])c1', 'MIC', 'µM', 16),
  ('COc1cccc(-n2nnnc2SCc2cc([N+](=O)[O-])cc([N+](=O)[O-])c2)c1', 'MIC', 'µM', 125),
  ('Nc1cc(N)cc(CSc2nnnn2-c2ccccc2)c1', 'MIC', 'µM', 1000),
  ('O=[N+]([O-])c1ccc(C[Se]c2nnnn2C2CCCCC2)c([N+](=O)[O-])c1', 'MIC', 'µM', 32),
  ('c1ccc(C[Se]c2nnnn2C2CCCCC2)cc1', 'MIC', 'µM', 125),
  ('O=[N+]([O-])c1cc(COc2nnnn2-c2ccc(Cl)c(Cl)c2)cc([N+](=O)[O-])c1', 'MIC', 'µM', 32),
  ('O=[N+]([O-])c1cc(CSc2nnnn2-c2ccccc2)cc([N+](=O)[O-])c1', 'MIC', 'µM', 62),
  ('Nn1nnnc1SCc1cc([N+](=O)[O-])cc([N+](=O)[O-])c1', 'MIC', 'µM', 1000);
